Sourced from patent US20140329863A1

Test: in vitro
Settings: Sprague-Dawley (rat), beagle (dog), CD-1 (mouse), human, plasma
METRIC: fraction unbound
# answer = number (no unit)

// Cc1ccnc(Nc2nc(-c3ccc(-c4ccccn4)s3)cs2)c1 [IND81] : fraction unbound value = 0.57

====

Assay: Single-dose pharmacokinetic studies in female FVB mice (PO, IV, IP)
Format: in vivo, mouse
Conditions: mouse, plasma; female FVB mice, 1 mg/kg IV
METRIC: half-life (h)
The reply should contain only the number, in h.

// Cc1cccc(Nc2nc(-c3ccc(-c4ccccc4)cc3)cs2)n1 : half-life value = 2

====

In this section we review reported AUC(0-t) values for a set of compounds.
Test: Single-dose pharmacokinetics in FVB mice (oral gavage, IV)
Conditions: female, FVB, mouse, plasma, po, 40 mg/kg
Param answer (str): number followed by unit.

[
  {
    "COMPOUND": "Cc1cccc(Nc2nc(-c3ccc(-c4ccccc4)cc3)cs2)n1",
    "AUC(0-t)": "3830 ng·h/mL"
  }
]

// C(=N\Nc1ccc(-c2cnco2)cc1)/c1ccncc1 [IND54304, reference compound] : AUC(0-t) value = 544 ng·h/mL

// Cc1ccnc(Nc2nc(-c3ccc(-c4ccccn4)s3)cs2)c1 : AUC(0-t) value = 288 ng·h/mL
